- protocolDetails: Activators via SNCA 5'UTR binding, MLPCN (AID 1814)
- experimentalConditions: alpha-synuclein 5'UTR reporter, activators screen; tested at 7.5 µM
In all, about 300,000 compounds went through this assay and about 22,000 (7.3%) were called active. Roughly 2% stayed inconclusive and do not appear here. Rule as the data show it: active = activity score below about -60%; inconclusive = mostly about -28% to -61%; inactive = positive scores. The entries come from a sample that favours actives as a whole.
Give your call using only these classes: 1 (active), -1 (inactive)

O=C(NC1CCCC1)C(=O)c1c[nH]c2ccccc12 : 1

I would be grateful if you could indicate the recorded call for `Cc1ccccc1-n1c(C)cc(/C=C2\NC(=O)NC2=O)c1C` .
1

I would be grateful if you could indicate the recorded call for `COc1ccc(N=C(C)c2sc3ccccc3c2O)cc1` .
1

I would be grateful if you could indicate the recorded call for `CC(C)CNC(=O)c1cc(-c2ccc(Br)cc2)on1` .
1

###

Below is a list of entries, each paired with its recorded activity score value.
- protocolDetails: Activators via SNCA 5'UTR binding, MLPCN (AID 1814)
- experimentalConditions: alpha-synuclein 5'UTR reporter, activators screen; hits give low values; tested at 7.5 µM
Screen size: about 300,000 compounds; about 22,000 (7.3%) were called active. Another 2% or so got no clear call; they are omitted. The full list was thinned out, with actives kept by preference.
Please give a number only; it is taken to be in %.

Known results for compounds:
CCc1nonc1NC(=O)c1oc2ccc(Cl)cc2c1C : -90.7
COc1ccccc1OCC(=O)O/N=C(\N)c1ccccn1 : -121
O=C(c1ccco1)N1CCN(C(=O)c2cc(-c3ccccc3F)no2)CC1 : -156
Cc1ccc(Nc2nc(N)nc(CSc3nnc(C)s3)n2)cc1 : -63.8
O=C1CCCc2c1[nH]c1ccc(Br)cc21 : 89

Form field: reported activity score of `COc1cc(CNc2ncn[nH]2)ccc1OCc1ccccc1C`
-65.6

Form field: reported activity score of `N/C(=N\OC(=O)CC1CCCCC1)c1ccccc1`
-116

Form field: reported activity score of `CN1CCN(NC(=O)Nc2ccc(Br)cc2)CC1`
-64.9

Form field: reported activity score of `COc1ccc(C(=O)O/N=C(\N)c2ccccn2)cc1[N+](=O)[O-]`
-177

Form field: reported activity score of `CCOC(=O)c1c(Cc2ccc(Cl)cc2)c[nH]c1C`
-90.9

Form field: reported activity score of COC(=O)CCC(=O)N1CCCC(CO)(Cc2ccccc2)C1 (stereo not given)
-124

Form field: reported activity score of `O=C(NCCCN1CCOCC1)c1cc(-c2ccccc2F)no1`
-121

###

- protocolDetails: Activators via SNCA 5'UTR binding, MLPCN (AID 1814)
- experimentalConditions: alpha-synuclein 5'UTR reporter, activators screen; hits give low values; tested at 7.5 µM
Screen size: about 300,000 compounds; about 22,000 (7.3%) were called active. Inconclusive results (about 2%) are left out. The sample as a whole holds a higher share of actives than the screen did.
parameter: activity score (%)
Please give a number only; it is taken to be in %.

Known results for compounds:
COc1ccc(-c2cc(C(=O)NC(Cc3c[nH]c4ccccc34)C(=O)O)c(C)o2)cc1OC (configuration not stated) : -104
COCCN(C(=O)c1ccco1)c1nnc(-c2ccc(OC)cc2)s1 : -68.7
Cn1nnnc1SCC(=O)Nc1nc2ccccc2s1 : -151
O=C(CSc1ccc(-c2ccc(-n3cccn3)cc2)nn1)Nc1ccc([N+](=O)[O-])cc1 : -99.7
O=C(/C=C/Sc1ncn[nH]1)c1ccc(Cl)cc1 : -73.9

Form field: reported activity score of `CCOC(=O)c1cc2n(c1C)-c1ccccc1C2=O`
-108

Form field: reported activity score of `Cc1ccc(C(=O)Cc2nnc(C)s2)cc1`
-98.4

Form field: reported activity score of `Cc1ccc2nc(-c3ccncc3)cc(C(=O)Nc3ccc(OC(F)F)cc3)c2c1`
67.6

###

- protocolDetails: Activators via SNCA 5'UTR binding, MLPCN (AID 1814)
- experimentalConditions: alpha-synuclein 5'UTR reporter, activators screen; hits give low values; tested at 7.5 µM
The campaign covered roughly 300,000 compounds. About 22,000 (7.3%) were called active. Not shown: some 2% with an inconclusive outcome. Many of the other results were omitted from the sample, so actives are more common in it than they were.
parameter: activity score (%)
Please give a number only; it is taken to be in %.

CCOc1ccc2nc(Nc3nc4ccc(NC(C)=O)cc4s3)sc2c1 : -88.4
O=C(CCSc1ccccc1)N1CCN(c2ccccc2F)CC1 : -115

Form field: reported activity score of `Nc1ccc(N=Nc2ccccc2Cl)c(N)n1`
-165

Form field: reported activity score of `COc1ccc(-c2cn3ccsc3n2)cc1`
-105

Form field: reported activity score of `FC(F)(F)Oc1ccc(-c2cn3cccnc3n2)cc1`
-80.4

###

- protocolDetails: Activators via SNCA 5'UTR binding, MLPCN (AID 1814)
- experimentalConditions: alpha-synuclein 5'UTR reporter, activators screen; hits give low values; tested at 7.5 µM
Out of some 300,000 compounds screened, about 22,000 (7.3%) were called active. Inconclusive results (about 2%) are left out. The sample as a whole holds a higher share of actives than the screen did.
Below is a list of entries, each paired with its recorded activity score value.
Please give a number only; it is taken to be in %.

O=C(CSc1ccccc1)Nc1ccc(NC(=O)c2ccco2)cc1 : -68.2
COc1ccc(-c2nc(-c3ccccc3)no2)c(OC)c1 : 68.9
O=C(c1ccc(F)cc1)n1c(=S)nc2ccccn21 : -171
CN(C)CCCN(C(=O)c1ccc(S(=O)(=O)N2CCCCCC2)cc1)c1nc2ccc(Br)cc2s1 : 75.3
COc1ccc2nc(Nc3nc(-c4ccncc4)cs3)sc2c1 : -122
O=C(Nc1cccc(-c2nc3ncccc3o2)c1)c1ccco1 : -72.9
COc1ccccc1-c1cnn2c(N3CCOCC3)cc(C)nc12 : -164
CC(C)n1cnc2c(Nc3cccc(Cl)c3)nc(N(CCO)CCCO)nc21 : 64.7
COc1ccc2occ(C(=O)c3ccc(N=C(C)N(C)C)cc3)c2c1 : -75.8
Cc1ccc(-n2nc3ccc(NC(=O)/C=C/c4ccco4)cc3n2)cc1C : -154

Form field: reported activity score of `Brc1ccc2nc(N3CCCC3)sc2c1`
-105

Form field: reported activity score of `CCCc1ccc(OCCNC(=O)c2ccco2)cc1`
-90.6

Form field: reported activity score of `COc1ccccc1Cc1nc(-c2ccc(C)cc2)no1`
-97.1

Form field: reported activity score of `Cc1cccc(-n2ncc(Cl)c(Cl)c2=O)c1`
-220

Form field: reported activity score of `O=c1oc2ccccc2cc1-c1csc(Nc2ccc(O)cc2)n1`
-171

Form field: reported activity score of `O=C(/C=C/c1ccc(Cl)cc1)Nc1ccc(Br)cn1`
-62.5

Form field: reported activity score of `COc1ccc2oc(-c3cccc(NC(=O)CSc4ccc(Cl)cc4)c3)nc2c1`
-97.9

Form field: reported activity score of CN1CCN(C2Cc3ccc(Cl)cc3Sc3ccc(F)cc32)CC1 (configuration not stated)
104

Form field: reported activity score of `CC(C)(C)c1ccc(/C=C2\SC(=O)N=C2N)cc1`
-78.7

Form field: reported activity score of `COc1ccc(-c2onc3ccc(C(C)=O)cc23)cc1`
-120

Form field: reported activity score of `Fc1ccccc1COc1cccc2cccnc12`
-134

###

- protocolDetails: Activators via SNCA 5'UTR binding, MLPCN (AID 1814)
- experimentalConditions: alpha-synuclein 5'UTR reporter, activators screen; hits give low values; tested at 7.5 µM
About 22,000 (7.3%) of roughly 300,000 compounds were called active. Not shown: some 2% with an inconclusive outcome. The entries come from a sample that favours actives as a whole.
Below is a list of entries, each paired with its recorded activity score value.
Please give a number only; it is taken to be in %.

Known results for compounds:
O=C(Nc1cc(C(F)(F)F)ccc1Cl)c1cc2nc3c(c(C(F)(F)F)n2n1)CCCC3 : -243
Clc1ccc(Cc2nnc(-c3cccs3)o2)cc1 : -116
O=[N+]([O-])c1ccc(N/N=C/c2ccccc2)cc1 : -210
COC(=O)c1ccc(/C=N/N2C(C)CCCC2C)cc1 (centres undefined) : -172
Cc1cc(C(=O)N/N=C\C(Br)=C\c2ccccc2)c(C)o1 : -124

Form field: reported activity score of `CC(=O)Oc1ccccc1C(=O)Nc1ncc([N+](=O)[O-])s1`
-68.7

Form field: reported activity score of `COc1ccc(C(=O)Nc2ccccc2C(=O)N/N=C/c2ccccc2OC)cc1`
-124

Form field: reported activity score of `CCOC(=O)c1ccc(NC(=O)c2cccnc2)cc1`
-77.6

Form field: reported activity score of `COc1cc(/C=N/O)ccc1OCc1ccc([N+](=O)[O-])cc1`
-86.3

Form field: reported activity score of `CCOC(=O)c1nn(-c2cccc(C)c2)cc1C(=O)c1ccccc1`
-90.5

Form field: reported activity score of `CC(=C/c1ccccc1)/C=N/NC(=O)c1cc(C)oc1C`
-125

Form field: reported activity score of `O=C(Cc1c(F)cccc1Cl)Nc1ncc([N+](=O)[O-])s1`
-133
